Exercise: for every item that follows, state its recorded Threshold in water.
Test system: sensory panel
test: Taste threshold in water (intrinsic taste), duo-trio tests
Format: in vivo
No end group written: not given here.
Answers are plain numbers, in µmol/L.

Record excerpt, results attached:
substance="RAEDTATYY [SEQ ID NO: 18]" valuetype="Threshold in water" readoutvalue=610
substance="Pro-Glu-Arg-Asn-Glu (PERNE; Poultry) [SEQ ID NO: 4]" valuetype="Threshold in water" readoutvalue=100
substance="Glu-Ala-Glu-Phe-Asp (EAEFD; Poultry) [SEQ ID NO: 3]" valuetype="Threshold in water" readoutvalue=116

Lab note: each substance below needs its Threshold in water filled in.
1. ENAPDQK [SEQ ID NO: 12]
2. EPEGDVHQ [SEQ ID NO: 20]
3. Pro-Val-Ala-Glu (PVAE; Poultry) [SEQ ID NO: 16]
4. EETPSHD [SEQ ID NO: 9]

Given back:
[907, 243, 688, 283]

Quick one: give me Threshold in water for each item below, same order please.
1. Pro-Gln-Pro-Glu-Arg (PQPER; Poultry) [SEQ ID NO: 5]
2. EDEVLATP [SEQ ID NO: 21]

Given back:
[705, 894]

Count: 5. Required value per item: Threshold in water.
1. EDAPVLH [SEQ ID NO: 7]
2. EEVEEEEVE [SEQ ID NO: 10]
3. EFDEKAPD [SEQ ID NO: 11]
4. Pro-Leu-Pro-Arg (PLPR; Poultry) [SEQ ID NO: 2]
5. Glu-Asp-Met-Ala-Pro (EDMAP; Poultry) [SEQ ID NO: 13]

Given back:
[565, 233, 865, 296, 1024]

====

Provide the recorded Enhancement or reduction for the entries that follow.
Test system: Panelists
test: Salt isointensity test
Type: in vivo
testSettings: versus 50 mM NaCl; isointensity above 50 = enhancement, below 50 = reduction; peptide 1 mmol/L
No end group written: not given here.
Answers are plain numbers, in %.

substance="EFDEKPAD [SEQ ID NO: 6]" uom=% readoutvalue=20
substance="Pro-Val-Leu-Lys (PVLK; Poultry) [SEQ ID NO: 1]" uom=% readoutvalue=14
substance="EFDEKAPD [SEQ ID NO: 11]" uom=% readoutvalue=24

Items follow; give Enhancement or reduction for each.
1. EFDARPT [SEQ ID NO: 8]
2. Glu-Ala-Glu-Phe-Asp (EAEFD; Poultry) [SEQ ID NO: 3]
3. Pro-Ile-Asn-Asp-Asn (PINDN; Poultry) [SEQ ID NO: 14]

Given back:
1. 33
2. 14
3. 27

====

Test system: Panelists
test: Salt isointensity test
Format: in vivo
testSettings: peptide 1 mmol/L in model broth containing 50 mM NaCl
No end group written: not given here.
valueType: Salt-taste enhancing or reducing property

Before answering, review these 5 worked examples.
substance="Glu-Ala-Glu-Phe-Asp (EAEFD; Poultry) [SEQ ID NO: 3]" readoutvalue="salt-tase reducing"
substance="Pro-Val-Leu-Lys (PVLK; Poultry) [SEQ ID NO: 1]" readoutvalue="salt-tase reducing"
substance="EFDEKPAD [SEQ ID NO: 6]" readoutvalue="salt-tase enhancing"
substance="EFDARPT [SEQ ID NO: 8]" readoutvalue="salt-tase enhancing"
substance="EFDEKAPD [SEQ ID NO: 11]" readoutvalue="salt-tase enhancing"

Please state Salt-taste enhancing or reducing property for every substance in the list that follows.
1. Pro-Val-Ala-Glu (PVAE; Poultry) [SEQ ID NO: 16]
2. EDEVLATP [SEQ ID NO: 21]
3. Pro-Ile-Asn-Asp-Asn (PINDN; Poultry) [SEQ ID NO: 14]

Given back:
salt-tase enhancing
salt-tase enhancing
salt-tase enhancing

====

test: Quantification of peptides in the hydrolyzed chicken plasma sample and DoT factors
testSettings: ratio of concentration in hydrolyzed chicken plasma sample to taste threshold in model broth
No end group written: not given here.
Would you mind telling me the reported DoT factor of each entry?

List DoT factor for every entry below, keeping the order given.
1. ENAPDQK [SEQ ID NO: 12]
2. EEVEEEEVE [SEQ ID NO: 10]
3. Pro-Glu-Arg-Asn-Glu (PERNE; Poultry) [SEQ ID NO: 4]
4. RAEDTATYY [SEQ ID NO: 18]

Given back:
1. 0.2
2. 0.1
3. 0.1
4. 0.0

Your task in this section: give DoT factor for each listed record.
1. Pro-Leu-Pro-Arg (PLPR; Poultry) [SEQ ID NO: 2]
2. EGDSAAI [SEQ ID NO: 19]

Given back:
0.0
0.2

Field: DoT factor. Fill in for each record below.
1. EFDARPT [SEQ ID NO: 8]
2. Pro-Val-Ala-Glu (PVAE; Poultry) [SEQ ID NO: 16]

Given back:
1. 0.0
2. 0.7

Report DoT factor for every entry below.
1. Pro-Val-Leu-Lys (PVLK; Poultry) [SEQ ID NO: 1]
2. EETPSHD [SEQ ID NO: 9]
3. Arg-Asn-Gly-Pro-Arg (RNGPR; Poultry) [SEQ ID NO: 17]
4. Pro-Gln-Pro-Glu-Arg (PQPER; Poultry) [SEQ ID NO: 5]
5. Glu-Asp-Met-Ala-Pro (EDMAP; Poultry) [SEQ ID NO: 13]
6. EDAPVLH [SEQ ID NO: 7]

Given back:
1. 0.0
2. 0.1
3. 0.0
4. 0.0
5. 0.2
6. 0.1

====

Tested on: sensory panel
test: Taste threshold in water (intrinsic taste), duo-trio tests
Type: in vivo
No end group written: not given here.
valueType: Threshold in water

Use these answered entries as a reference point.
substance="EGDSAAI [SEQ ID NO: 19]" valuetype="Threshold in water" readoutvalue=tasteless
substance="EFDARPT [SEQ ID NO: 8]" valuetype="Threshold in water" readoutvalue=tasteless
substance="Arg-Asn-Gly-Pro-Arg (RNGPR; Poultry) [SEQ ID NO: 17]" valuetype="Threshold in water" readoutvalue=tasteless
substance="Pro-Ile-Asn-Asp-Asn (PINDN; Poultry) [SEQ ID NO: 14]" valuetype="Threshold in water" readoutvalue=tasteless
substance="EFDEKPAD [SEQ ID NO: 6]" valuetype="Threshold in water" readoutvalue=tasteless
substance="Pro-Val-Leu-Lys (PVLK; Poultry) [SEQ ID NO: 1]" valuetype="Threshold in water" readoutvalue=tasteless

Asked: Answer with the recorded Threshold in water for the substance listed here: Pro-Thr-Asp-Leu (PTDL; Poultry) [SEQ ID NO: 15]
Given back: tasteless

====

Assign Enhancement or reduction to each entry below.
System: Panelists
test: Salt isointensity test
Type: in vivo
testSettings: versus 50 mM NaCl; isointensity above 50 = enhancement, below 50 = reduction; peptide 1 mmol/L
No end group written: not given here.
Answers are plain numbers, in %.

substance="Pro-Val-Ala-Glu (PVAE; Poultry) [SEQ ID NO: 16]" valuetype="Enhancement or reduction" uom=% readoutvalue=24
substance="EDEVLATP [SEQ ID NO: 21]" valuetype="Enhancement or reduction" uom=% readoutvalue=20

Asked: Name the recorded Enhancement or reduction of the substance listed here: Glu-Asp-Met-Ala-Pro (EDMAP; Poultry) [SEQ ID NO: 13]
Given back: 13
